molecular target: Gal6S(b1-4)Glc; assay: glycan array binding signal (z-score within array); higher = stronger binding; conditions: glycan notation: IUPAC condensed, linker removed
The full list was thinned out, with the strongest signals kept by preference.
OUTCOME MEASURE: glycan array binding signal (z-score)

[[record]]
binder = "Epa1to9 (Candida glabrata) (protein) MGSSHHHHHHSSGLVPRGSHMTSSNDISLASKDPTTFPLGCSPDITTPKKGLSMELYSYDFRKKGSYPCWDAAYLDPNYPRTGYKSHRLLAKVDGVTGNINFYYHATKGCTPQLGHLPASYNYPKPLTMTNFTMLLYGYFRPKVTGFHTFTISADDLLFVNFGAGNAFDCCRRDSSADHFGNYQAYAIWGSKTAKDELTVHLDAGVYYPIRLFYNNRDYHGALSFTFKTESNENTVSDFSEYFFSLDDTEEGCPGLISYD"
outcome_measure = "glycan array binding signal (z-score)"
numeric_readout = 5.05

[[record]]
binder = "SBD (Rhizopus oryzae), P07683 (protein) ASIPSSASVQLDSYNYDGSTFSGKIYVKNIAYSKKVTVVYADGSDNWNNNGNIIAASFSGPISGSNYEYWTFSASVKGIKEFYIKYEVSGKTYYDNNNSANYQVS"
outcome_measure = "glycan array binding signal (z-score)"
numeric_readout = -0.476

[[record]]
binder = "HBHA-Rv (Mycobacterium tuberculosum), P0A5P6 (protein) MAENSNIDDIKAPLLAALGAADLALATVNELITNLRERAEETRTDTRSRVEESRARLTKLQEDLPEQLTELREKFTAEELRKAAEGYLEAATSRYNELVERGEAALERLRSQQSFEEVSARAEGYVDQAVELTQEALGTVASQTRAVGERAAKLVGIELPKKAAPAKKAAPAKKAAPAKKAAAKKAPAKKAAAKKVTQK"
outcome_measure = "glycan array binding signal (z-score)"
numeric_readout = 1.36

[[record]]
binder = "SAG1 (Toxoplasma gondii), P13664 (protein) MSVSLHHFIISSGFLTSMFPKAVRRAVTAGVFAAPTLMSFLRCGVMASDPPLVANQVVTCPDKKSTAAVILTPTENHFTLKCPKTALTEPPTLAYSPNRQICPAGTTSSCTSKAVTLSSLIPEAEDSWWTGDSASLDTAGIKLTVPIEKFPVTTQTFVVGCIKGDDAQSCMVTVTVQARASSVVNNVARCSYGADSTLGPVKLSAEGPTTMTLVCGKDGVKVPQDNNQYCSGTTLTGCNEKSFKDILPKLTENPWQGNASSDKGATLTIKKEAFPAESKSVIIGCTGGSPEKHHCTVKLEFAGAAGSAKSAAGTASHVSIFAMVIGLIGSIAACVA"
outcome_measure = "glycan array binding signal (z-score)"
numeric_readout = -0.579

[[record]]
binder = "Epa23 (Candida glabrata) (protein) MGSSHHHHHHSSGLVPRGSHMIPNPFEGTINNFPSGCSPNHGLYNRGLTMELYNYSYIHPQSIQSYFNTSTLKKMEKGQCWDPSYLDVNYPRTGYKTHNRFAKVNGIDGILDFEFNPTRSCVPSKGQLPQNYNYPLQFTLSNFTMLLYGYFKPKVTAKHTFTIFADDLLFLNFGAGNAFDCCQQQDTIDDFGNYQAYALWGSDTQQNTLTVNLDANIYYPIRMFYNNRDFKGALNMYFTTDESNTKINDFSGYLFNIPDSSEGCPAHISYETECGNVSG"
outcome_measure = "glycan array binding signal (z-score)"
numeric_readout = 6.7

[[record]]
binder = "CBP21 (Serratia marcescens), O83009 (protein) MNKTSRTLLSLGLLSAAMFGVSQQANAHGYVESPASRAYQCKLQLNTQCGSVQYEPQSVEGLKGFPQAGPADGHIASADKSTFFELDQQTPTRWNKLNLKTGPNSFTWKLTARHSTTSWRYFITKPNWDASQPLTRASFDLTPFCQFNDGGAIPAAQVTHQCNIPADRSGSHVILAVWDIADTANAFYQAIDVNLSK"
outcome_measure = "glycan array binding signal (z-score)"
numeric_readout = -0.3

[[record]]
binder = "CBM32-1 (Clostridium perfringens) (protein) MGSSHHHHHHSSGLVPRGSHMASGVEITEGVTVTAKGNTEGNTADLAIDGDLSTYWESSNDYKWIEVDLGGIYELSKIEIFNKDEAVYKYNIYASEDGENFNKIAYKNNDNVSDSNGNVHTIDNVRAGKIRIDVVQNSNSDRVNIAEINVFG"
outcome_measure = "glycan array binding signal (z-score)"
numeric_readout = 0.513

[[record]]
binder = "SSR1 (Sclerotium rolfsii), A0A0M3KL30 (protein) TYKITVRVYQTNPDAFFHPVEKTVWKYANGGTWTITDDQHVLTMGGSGTSGTLRFHADNGESFTATFGVHNYKRWCDIVTNLAADETGMVINQQYYSQKNREEARERQLSNYQVKNAKGRNFQIVYTEAEGNDLHANLIIG"
outcome_measure = "glycan array binding signal (z-score)"
numeric_readout = -0.323

